# TEST SYSTEM: Left-right determination factor 2 (Homo sapiens) (UniProt O00292)
# Sequence (O00292 whole entry, looked up): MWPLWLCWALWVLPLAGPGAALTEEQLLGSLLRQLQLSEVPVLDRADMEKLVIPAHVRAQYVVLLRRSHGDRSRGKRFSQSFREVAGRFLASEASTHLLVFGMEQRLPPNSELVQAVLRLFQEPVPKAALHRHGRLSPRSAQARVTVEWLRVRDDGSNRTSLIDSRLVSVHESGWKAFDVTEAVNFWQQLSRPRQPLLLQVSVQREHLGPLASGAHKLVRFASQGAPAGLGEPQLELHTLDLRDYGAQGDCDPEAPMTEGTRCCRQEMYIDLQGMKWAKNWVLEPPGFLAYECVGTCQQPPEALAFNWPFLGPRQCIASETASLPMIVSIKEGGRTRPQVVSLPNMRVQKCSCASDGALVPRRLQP
# TEST PROTOCOL: small molecules binding LEFTY2 protein – biochemical, small-molecule microarray, 635 nm fluorescence scan, primary screen (AID 1110)
# MEASUREMENT CONDITIONS: higher = more signal
ASSAY METRIC: composite z-score
Answer field: number only, no words.

The recorded composite z-score for COc1ccc(C#Cc2ccc3c(c2)[C@]2(C(=O)N3)[C@H](C(=O)O)[C@H]3C(=O)O[C@H](c4ccccc4)[C@H](c4ccccc4)N3[C@@H]2c2ccccc2OCCO)cc1 is 0.694

The recorded composite z-score for COCCOC(=O)N1C(=O)[C@@]2(c3cc(C#CC4(O)CCCCCC4)ccc31)[C@H](c1ccc(O)cc1)N1[C@H](c3ccccc3)[C@H](c3ccccc3)OC(=O)[C@H]1[C@@H]2C(=O)N1CCCCCCC1 is 0.298

The recorded composite z-score for CO[C@H]1O[C@H](CO)[C@@H](OC(=O)Nc2ccccc2)[C@H](OC(=O)Nc2ccccc2)[C@H]1OC(=O)Nc1ccccc1 is -0.0522

The recorded composite z-score for C=CCC(OC(C)=O)[C@@H]1[C@@H](N(Cc2cc3ccccc3o2)C(=O)c2cccc3ccccc23)c2cc(OCCCO)ccc2N1C(=O)c1ccc2ccccc2n1 (stereo partly specified) is 0.186

The recorded composite z-score for CN(C)c1ccc(C(O)C2C=CC3C(=O)N(Cc4ccccc4)C(=O)C3N2n2cnnc2)cc1 (stereo unspecified) is 0.205

The recorded composite z-score for CCOC(=O)C1=CC[C@@H](c2ccccc2)N(S(=O)(=O)c2ccc(C)cc2)[C@H]1c1ccccc1I is 0.316

Entry source: PubChem BioAssay
